What follows is a record of AC50 for Androgen receptor (Rattus norvegicus, UniProt P15207).

# annotated cases, reported AC50 shown
Challenge: Field: AC50 (Androgen receptor (Rattus norvegicus, UniProt P15207)). Entry: `C[C@]1(COc2ccc(N3CCC(Oc4ccc(OC(F)(F)F)cc4)CC3)cc2)Cn2cc([N+](=O)[O-])nc2O1`
Response given: > 30 µM

Challenge: Field: AC50 (Androgen receptor (Rattus norvegicus, UniProt P15207)). Entry: Nc1nc(F)nc2c1ncn2[C@@H]1O[C@H](COP(=O)(O)O)[C@@H](O)[C@@H]1O [FLUDARABINE PHOSPHATE]
Response given: > 30 µM

Challenge: State its AC50 on Androgen receptor (Rattus norvegicus, UniProt P15207): O=c1oc2ccccc2c(O)c1Cc1c(O)c2ccccc2oc1=O [DICUMAROL]
Sequence (P15207 whole entry S389L): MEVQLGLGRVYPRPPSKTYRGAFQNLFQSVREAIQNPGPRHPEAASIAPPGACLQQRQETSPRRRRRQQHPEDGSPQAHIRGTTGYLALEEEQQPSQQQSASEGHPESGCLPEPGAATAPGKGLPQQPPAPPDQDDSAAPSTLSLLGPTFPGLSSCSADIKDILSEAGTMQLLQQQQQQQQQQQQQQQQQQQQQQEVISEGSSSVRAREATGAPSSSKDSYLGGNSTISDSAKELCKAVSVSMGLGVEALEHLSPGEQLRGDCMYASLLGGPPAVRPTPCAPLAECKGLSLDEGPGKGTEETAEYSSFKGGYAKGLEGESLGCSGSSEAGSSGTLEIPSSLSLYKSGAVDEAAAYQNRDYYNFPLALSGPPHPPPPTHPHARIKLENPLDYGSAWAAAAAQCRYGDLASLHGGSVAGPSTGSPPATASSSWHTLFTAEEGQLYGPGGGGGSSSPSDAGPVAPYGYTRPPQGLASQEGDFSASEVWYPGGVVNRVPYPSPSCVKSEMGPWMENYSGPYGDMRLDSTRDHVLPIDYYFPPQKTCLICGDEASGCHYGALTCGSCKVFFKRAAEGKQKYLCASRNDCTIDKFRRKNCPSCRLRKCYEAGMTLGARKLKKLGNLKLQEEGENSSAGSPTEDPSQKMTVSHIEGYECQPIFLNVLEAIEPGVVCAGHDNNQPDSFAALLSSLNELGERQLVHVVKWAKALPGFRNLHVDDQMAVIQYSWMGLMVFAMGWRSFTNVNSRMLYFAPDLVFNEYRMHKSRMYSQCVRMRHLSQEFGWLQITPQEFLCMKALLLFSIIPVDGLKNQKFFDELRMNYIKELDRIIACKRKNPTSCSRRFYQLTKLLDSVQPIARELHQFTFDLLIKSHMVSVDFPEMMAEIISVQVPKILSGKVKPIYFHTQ
Response given: > 10 µM

Challenge: Param readout = AC50; param system = Androgen receptor (Rattus norvegicus, UniProt P15207); param query = CCc1oc2ccccc2c1C(=O)c1cc(Br)c(O)c(Br)c1 [BENZBROMARONE] ; response: value; note: assay procedure not described here
Response given: > 10 µM

New cases:
Challenge: // map COC1=C(OC)C(=O)C(CCCCCCCCCCO)=C(C)C1=O [IDEBENONE] to recorded AC50 (system: Androgen receptor (Rattus norvegicus, UniProt P15207)); note: assay procedure not described here
Response given: > 30 µM

###

// values below are AC50; system is Glutamate receptor ionotropic, NMDA 1 (Rattus norvegicus, UniProt P35439); note: assay procedure not described here

The following compounds have reported results that may help.
Challenge: Query for Glutamate receptor ionotropic, NMDA 1 (Rattus norvegicus, UniProt P35439): what AC50 does the record show for NC(=O)CCC/N=C(\c1ccc(Cl)cc1)c1cc(F)ccc1O [PROGABIDE] ?
Response given: > 10 µM

Challenge: Short answer please: AC50, Glutamate receptor ionotropic, NMDA 1 (Rattus norvegicus, UniProt P35439), entry CCCCC[C@H](O)/C=C/[C@H]1[C@H](O)CC(=O)[C@@H]1C/C=C\CCCC(=O)O [DINOPROSTONE]
Response given: > 30 µM

Challenge: # value lookup — system Glutamate receptor ionotropic, NMDA 1 (Rattus norvegicus, UniProt P35439), readout AC50, item C#C[C@]1(O)CC[C@H]2[C@@H]3CCc4cc(OC)ccc4[C@H]3CC[C@@]21C [MESTRANOL]; note: assay procedure not described here
Response given: > 10 µM

Challenge: # returns recorded AC50 (system: Glutamate receptor ionotropic, NMDA 1 (Rattus norvegicus, UniProt P35439)) for CC#CCn1c(N2CCC[C@@H](N)C2)nc2c1c(=O)n(Cc1nc(C)c3ccccc3n1)c(=O)n2C [LINAGLIPTIN]; note: assay procedure not described here
Response given: > 10 µM

---
Challenge: Record lookup: for Glutamate receptor ionotropic, NMDA 1 (Rattus norvegicus, UniProt P35439), what AC50 belongs to CC(C)CC(N(C)C)C1(c2ccc(Cl)cc2)CCC1 (stereo not drawn) [SIBUTRAMINE] ?
Response given: > 10 µM

Challenge: # get_value(readout= AC50, system= Glutamate receptor ionotropic, NMDA 1 (Rattus norvegicus, UniProt P35439)) for COc1ccc(Cc2nccc3cc(OC)c(OC)cc23)cc1OC [PAPAVERINE]; note: assay procedure not described here
Response given: > 30 µM

Challenge: Could you share what AC50 was measured for Nc1ccc(C(=O)O)c(O)c1 [AMINOSALICYLIC ACID] , tested on Glutamate receptor ionotropic, NMDA 1 (Rattus norvegicus, UniProt P35439)?; note: assay procedure not described here
Response given: > 30 µM

Challenge: API: value(readout= AC50, system= Glutamate receptor ionotropic, NMDA 1 (Rattus norvegicus, UniProt P35439), query= Nc1nc2c(c(=O)[nH]1)N(C=O)C(CNc1ccc(C(=O)N[C@@H](CCC(=O)O)C(=O)O)cc1)CN2 (stereo partly drawn) [LEUCOVORIN] ); note: assay procedure not described here
Response given: > 30 µM

Challenge: Please tell me: AC50 of `C=C[C@@]1(C)CC(=O)[C@]2(O)[C@@]3(C)[C@@H](O)CCC(C)(C)[C@@H]3[C@H](OC(=O)CCN(C)C)[C@H](OC(C)=O)[C@@]2(C)O1` , system Glutamate receptor ionotropic, NMDA 1 (Rattus norvegicus, UniProt P35439)?; note: assay procedure not described here
Response given: > 30 µM

Challenge: Give AC50 (Glutamate receptor ionotropic, NMDA 1 (Rattus norvegicus, UniProt P35439)) of the following compound: `C[C@]1(COc2ccc(N3CCC(Oc4ccc(OC(F)(F)F)cc4)CC3)cc2)Cn2cc([N+](=O)[O-])nc2O1`
Response given: > 10 µM

Challenge: Request - read-out AC50 | tested on Glutamate receptor ionotropic, NMDA 1 (Rattus norvegicus, UniProt P35439) | compound `CC(/C=C1\SC(=S)N(CC(=O)O)C1=O)=C\c1ccccc1`; note: assay procedure not described here
Response given: > 30 µM

Challenge: Provide the documented AC50 with Glutamate receptor ionotropic, NMDA 1 (Rattus norvegicus, UniProt P35439) as the system for CC(C)(C)NCC(O)c1cc(Cl)c(N)c(Cl)c1 (stereo not drawn) [CLENBUTEROL]
Response given: > 30 µM

###

TESTED TARGET: Alpha-2A adrenergic receptor (Homo sapiens, UniProt P08913); note: assay procedure not described here
Sequence (P08913 whole entry): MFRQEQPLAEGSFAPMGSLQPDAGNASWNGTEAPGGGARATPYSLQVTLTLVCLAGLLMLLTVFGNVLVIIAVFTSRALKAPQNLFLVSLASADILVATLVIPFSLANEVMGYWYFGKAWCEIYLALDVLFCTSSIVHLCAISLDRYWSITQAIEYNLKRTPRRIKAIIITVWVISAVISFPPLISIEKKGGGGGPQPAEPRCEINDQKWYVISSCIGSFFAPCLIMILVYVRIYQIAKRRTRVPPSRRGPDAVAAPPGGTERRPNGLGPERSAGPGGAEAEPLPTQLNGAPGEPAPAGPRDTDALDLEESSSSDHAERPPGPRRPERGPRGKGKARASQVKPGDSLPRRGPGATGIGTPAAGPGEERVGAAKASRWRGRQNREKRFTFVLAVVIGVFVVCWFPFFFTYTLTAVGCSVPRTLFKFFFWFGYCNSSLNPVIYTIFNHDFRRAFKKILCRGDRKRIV
Format: functional, cell-based
RECORDED ENDPOINT: AC50

In the examples that follow, each entry is paired with its recorded AC50.
Challenge: What does the data say about its AC50? Entry: C=CC1=C(C(=O)O)N2C(=O)[C@@H](NC(=O)/C(=N\OCC(=O)O)c3csc(N)n3)[C@H]2SC1 [CEFIXIME]
Response given: > 30 µM

Challenge: Query (molecule): C[C@@H]1CCC[C@H](C)N1NC(=O)c1ccc(Cl)c(S(N)(=O)=O)c1 [CLOPAMIDE] ; field requested: AC50
Response given: > 30 µM

Challenge: Fill in: AC50 of C[C@H]1Oc2cc(cnc2N)-c2c(nn(C)c2C#N)CN(C)C(=O)c2ccc(F)cc21 [LORLATINIB] is ___
Response given: > 30 µM

Continuing:
Challenge: Bench note: what AC50 did Cc1cc(CC(=O)O)n(C)c1C(=O)c1ccc(Cl)cc1 [ZOMEPIRAC] show?
Response given: > 30 µM

Challenge: State the recorded AC50 for this entry: Clc1ccc(C(Cn2ccnc2)OCc2ccc(Sc3ccccc3)cc2)c(Cl)c1 (stereo not drawn) [FENTICONAZOLE]
Response given: > 30 µM

Challenge: # lookup: AC50 of COc1ccc2c(c1)[C@]13CCCC[C@@H]1[C@H](C2)N(C)CC3 [DEXTROMETHORPHAN]
Response given: > 10 µM

###

Catalogue of AC50 readings, one per entry.
TESTED TARGET: UniProtKB P27815
Sequence (P27815 whole entry): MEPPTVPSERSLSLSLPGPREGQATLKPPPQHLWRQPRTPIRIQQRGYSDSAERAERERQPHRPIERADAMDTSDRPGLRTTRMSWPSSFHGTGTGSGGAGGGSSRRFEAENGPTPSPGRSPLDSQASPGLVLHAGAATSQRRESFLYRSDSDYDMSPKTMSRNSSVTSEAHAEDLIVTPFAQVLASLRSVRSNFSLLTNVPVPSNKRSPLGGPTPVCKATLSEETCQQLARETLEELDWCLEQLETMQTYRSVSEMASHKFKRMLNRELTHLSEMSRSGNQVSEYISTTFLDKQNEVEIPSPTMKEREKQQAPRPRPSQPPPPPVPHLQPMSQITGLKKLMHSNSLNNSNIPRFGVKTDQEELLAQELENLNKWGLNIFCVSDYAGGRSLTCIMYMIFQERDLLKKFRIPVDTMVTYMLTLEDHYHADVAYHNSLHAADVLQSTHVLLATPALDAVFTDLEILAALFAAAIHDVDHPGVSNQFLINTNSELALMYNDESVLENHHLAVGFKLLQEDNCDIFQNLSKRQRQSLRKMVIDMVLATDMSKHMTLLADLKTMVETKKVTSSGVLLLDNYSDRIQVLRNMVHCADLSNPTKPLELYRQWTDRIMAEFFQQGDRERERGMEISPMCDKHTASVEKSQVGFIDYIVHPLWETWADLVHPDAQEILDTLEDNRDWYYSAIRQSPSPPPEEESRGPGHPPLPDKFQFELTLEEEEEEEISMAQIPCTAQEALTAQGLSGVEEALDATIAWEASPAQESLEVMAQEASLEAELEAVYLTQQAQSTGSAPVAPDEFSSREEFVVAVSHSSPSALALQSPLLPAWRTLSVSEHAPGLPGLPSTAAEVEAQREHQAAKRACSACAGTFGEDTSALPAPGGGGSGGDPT
Format: functional

Answered examples (8):
Challenge: What AC50 appears in the records for this compound with UniProtKB P27815? CC(=O)/N=c1/sc(S(N)(=O)=O)nn1C [METHAZOLAMIDE]
Response given: > 30 µM

Challenge: Return AC50 measured with UniProtKB P27815 given this compound: Cn1c(=O)c2c(ncn2CC(O)CO)n(C)c1=O (configuration not stated)
Response given: > 30 µM

Challenge: Report AC50 for `CO[C@H]1/C=C/O[C@@]2(C)Oc3c(C)c(O)c4c(O)c(cc(O)c4c3C2=O)NC(=O)/C(C)=C\C=C\[C@H](C)[C@H](O)[C@@H](C)[C@@H](O)[C@@H](C)[C@H](OC(C)=O)[C@@H]1C` tested on UniProtKB P27815.
Response given: > 30 µM

Challenge: # get_value(readout= AC50, system= UniProtKB P27815) for Nc1nc(N)nc(Nc2ccc([As]3SCC(CO)S3)cc2)n1 (configuration not stated)
Response given: 14.5 µM

Challenge: Item: Cc1cc2c(OCC(O)CNC(C)C)cccc2[nH]1 (configuration not stated) [MEPINDOLOL] Test system: UniProtKB P27815 Read-out: AC50 Value: ?
Response given: > 30 µM

Challenge: Give UniProtKB P27815 AC50 for `C=C1c2c(Cl)ccc(O)c2C(=O)C2=C(O)[C@]3(O)C(=O)C(C(N)=O)=C(O)[C@@H](N(C)C)[C@@H]3[C@@H](O)[C@H]12`
Response given: > 30 µM

Challenge: Kindly state the measured AC50 obtained for `C#C[C@]1(O)CC[C@H]2[C@@H]3CCC4=C(CCC(=O)C4)[C@H]3CC[C@@]21C` with UniProtKB P27815.
Response given: > 30 µM

Challenge: For UniProtKB P27815, provide AC50 of NC(=O)NS(=O)(=O)c1ccc(N)cc1 [SULFACARBAMIDE] please.
Response given: > 30 µM

---
Challenge: Look up AC50 with UniProtKB P27815 for this compound: CCN(CC)CCOC(=O)C(Cc1cccc2ccccc12)CC1CCCO1 (configuration not stated)
Response given: > 30 µM

Challenge: // map Cc1cc(CCN2CCN(c3cccc(Cl)c3)CC2)n[nH]1 [MEPIPRAZOLE] to recorded AC50 (system: UniProtKB P27815)
Response given: > 30 µM
